Biological target: S100A2
Assay: FP; competitive
measurement_name: Kd (nM)
Entry rule: numbers only, all in nM.

// worked examples, Kd included
NQVRPKLPLLKILHAAGAQ [MDM4 (25-43) peptide] :: 53000
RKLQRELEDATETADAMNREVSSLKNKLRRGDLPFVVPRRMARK [NMIIA (1894-1937) peptide] :: 13
VLQTWLQDLLRRGLVRAAQ [TRPM4 (129-147) peptide] :: 1100

q: For MAATAAAVVAEEDTELRDLLVQTLENSGVLNRIKAELRAAVFLALEEQ [FOP (1-48) peptide] , what is its reported Kd?
a: 81

Data origin, for the record: paper doi:10.1101/718155
